# MEASUREMENT_PROTOCOL: clinical
# CONDITIONS: human, in vivo, po, 2 mg/kg, mean half-life (tl/2)
OBSERVABLE: half-life (min)
Reply numerically in min, unit not repeated.

Task: // returns reported half-life for input Cc1cn([C@H]2C[C@H](N=[N+]=[N-])[C@@H](CO)O2)c(=O)[nH]c1=O
Result: 52.8

====

# MEASUREMENT_PROTOCOL: clinical
# CONDITIONS: human, in vivo, po, 2 mg/kg, Tmax
OBSERVABLE: Tmax (min)
Reply numerically in min, unit not repeated.

Task: // returns reported Tmax for input Cc1cn([C@H]2C[C@H](N=[N+]=[N-])[C@@H](CO)O2)c(=O)[nH]c1=O
Result: 30

====

# Tested on: Entero. aerogenes
# MEASUREMENT_PROTOCOL: In vitro antibacterial activity (MIC), Entero. aerogenes
# Format: cell-based, Enterobacter aerogenes
# CONDITIONS: Klebsiella aerogenes; Wellcotest sensitivity Test Agar + 7% lysed horse blood
Quick reference for MIC among some compounds
Reply numerically in µg/mL, unit not repeated.

Here is how some compounds turned out for MIC.
- COMPOUND: "CC(=O)OC[C@H]1O[C@@H](n2cc(C)c(-n3cncn3)nc2=O)C[C@@H]1N=[N+]=[N-]"
  EXPERIMENTAL_TARGET: "Entero. aerogenes"
  REPORTED_RESULT: 100
- COMPOUND: "Cc1cn([C@H]2C[C@H](N=[N+]=[N-])[C@@H](CO)O2)c(OCc2ccccc2)nc1=O"
  EXPERIMENTAL_TARGET: "Entero. aerogenes"
  REPORTED_RESULT: 10
- COMPOUND: "COc1nc(=O)c(C)cn1[C@H]1C[C@H](N=[N+]=[N-])[C@@H](CO)O1"
  EXPERIMENTAL_TARGET: "Entero. aerogenes"
  REPORTED_RESULT: 10
- COMPOUND: "COc1cc(Cc2cnc(N)nc2N)cc(OC)c1OC [Trimethoprim, reference compound]"
  EXPERIMENTAL_TARGET: "Entero. aerogenes"
  REPORTED_RESULT: 0.5

Consider the additional compound presented here.
Task: // returns reported MIC for input CC(=O)OC[C@H]1O[C@@H](n2cc(C)c(=S)[nH]c2=O)C[C@@H]1N=[N+]=[N-]
Result: 10

====

# MEASUREMENT_PROTOCOL: clinical
# CONDITIONS: human, in vivo, po, 2 mg/kg, AUC
OBSERVABLE: AUC (µM·h)
Reply numerically in µM·h, unit not repeated.

Task: // returns reported AUC for input Cc1cn([C@H]2C[C@H](N=[N+]=[N-])[C@@H](CO)O2)c(=O)[nH]c1=O
Result: 3.7

====

# MEASUREMENT_PROTOCOL: clinical
# CONDITIONS: human, in vivo, po, 2 mg/kg, Cmax
# Method: On days 2 and 3 the patients were also given 500 mg probenecid (PB) every 6 hours and a single dose of AZT was given on day 3.
OBSERVABLE: Cmax (µM)
Reply numerically in µM, unit not repeated.

Task: // returns reported Cmax for input Cc1cn([C@H]2C[C@H](N=[N+]=[N-])[C@@H](CO)O2)c(=O)[nH]c1=O
Result: 3.74

====

# MEASUREMENT_PROTOCOL: clinical
# CONDITIONS: human, in vivo, po, 2 mg/kg, tl/2
OBSERVABLE: half-life (min)
Reply numerically in min, unit not repeated.

Task: // returns reported half-life for input Cc1cn([C@H]2C[C@H](N=[N+]=[N-])[C@@H](CO)O2)c(=O)[nH]c1=O
Result: 52.2
